Assay: in vitro
Conditions: human, liver microsomes
quantity_kind: microsomal CLint (µL/min/mg)

Here's what some known entries look like.
# compound, microsomal CLint (µL/min/mg)
records = [
    ("CN1CCN(CCN(C)c2ccc(Cn3c(=O)[nH]c4c(N)nc(C(F)(F)F)cc43)cn2)CC1", 25),
    ("Nc1nc(C(F)(F)F)cc2c1[nH]c(=O)n2Cc1ccc(NCCN2CCCCC2)nc1", 13),
]

P: Nc1nc(C(F)(F)F)cc2c1[nH]c(=O)n2Cc1ccc(OCCN2CCCC2)nc1
Q: COCCN1CCN(c2ccc(Cn3c(=O)[nH]c4c(N)nc(C(F)(F)F)cc43)cn2)CC1
Input: Pick one, P or Q : lowest reported microsomal CLint. Bench note: the answer is the label of the chosen record.
Output: P
(P: 10 µL/min/mg, Q: 17 µL/min/mg)

====

Assay: Lipophilicity, log D of the compound
Type: physicochemical
Details: octanol/water
quantity_kind: logD

Here's what some known entries look like.
# compound, assay_result
measured = [
    ("Nc1nc(C(F)(F)F)cc2c1[nH]c(=O)n2Cc1ccc(NCCN2CCCCC2)nc1", 1.3),
    ("Nc1nc(C(F)(F)F)cc2c1[nH]c(=O)n2Cc1ccc(NCCO)nc1", 1.6),
]

1: Nc1nc(C(F)(F)F)cc2c1[nH]c(=O)n2Cc1ccc(OCCN2CCCC2)nc1
2: Nc1nc(C(F)(F)F)cc2c1[nH]c(=O)n2Cc1ccc(NCCN2CCCC2)nc1
Input: Between 1 and 2 , whose recorded logD is greater? Bench note: the answer is the label of the chosen record.
Output: 1
(1: 1.2, 2: 0.8)

====

Test: in vitro
Conditions: rat, cytosol
quantity_kind: half-life (min)

# compound, unit, half-life
rows = [
    ("Nc1nc(C(F)(F)F)cc2c1[nH]c(=O)n2Cc1ccc(NCCO)nc1", "min", 196),
]

I: Nc1nc(C(F)(F)F)cc2c1[nH]c(=O)n2Cc1ccc(NCc2ccccc2)nc1
II: CN(C)CCNc1ccc(Cn2c(=O)[nH]c3c(N)nc(C(F)(F)F)cc32)cn1
Input: Pick one, I or II : lowest reported half-life. Bench note: the answer is the label of the chosen record.
Output: I

====

Assay: in vitro
Settings: human, liver microsomes
quantity_kind: microsomal CLint (µL/min/mg)

Here's what some known entries look like.
# compound, quantity_kind, assay_result
data = [
    ("CN(C)CCNc1ccc(Cn2c(=O)[nH]c3c(N)nc(C(F)(F)F)cc32)cn1", "microsomal CLint", 9),
    ("CN(C)CCN(C)c1ccc(Cn2c(=O)[nH]c3c(N)nc(C(F)(F)F)cc32)cn1", "microsomal CLint", 16),
    ("CCN(CC)CCN(C)c1ccc(Cn2c(=O)[nH]c3c(N)nc(C(F)(F)F)cc32)cn1", "microsomal CLint", 24),
    ("CN(CCN1CCCCC1)c1ccc(Cn2c(=O)[nH]c3c(N)nc(C(F)(F)F)cc32)cn1", "microsomal CLint", 25),
]

I: CN(C)CCOc1ccc(Cn2c(=O)[nH]c3c(N)nc(C(F)(F)F)cc32)cn1
II: Nc1nc(C(F)(F)F)cc2c1[nH]c(=O)n2Cc1ccc(NCCN2CCCC2)nc1
Input: Pick one, I or II : lowest reported microsomal CLint. Bench note: the answer is the label of the chosen record.
Output: II
